- Tested System: human tryptase (Homo sapiens)
- Sequence (P20231 31-275): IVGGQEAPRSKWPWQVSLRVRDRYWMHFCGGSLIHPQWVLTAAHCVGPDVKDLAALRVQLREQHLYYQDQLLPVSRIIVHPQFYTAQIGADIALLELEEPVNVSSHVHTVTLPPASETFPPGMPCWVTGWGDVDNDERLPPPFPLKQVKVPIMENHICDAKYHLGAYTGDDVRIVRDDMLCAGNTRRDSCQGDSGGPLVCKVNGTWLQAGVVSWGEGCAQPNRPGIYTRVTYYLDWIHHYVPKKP
pKi: −log10 of the molar value. Where a name gives a salt, the structure may show the parent alone.
Classification field: T = pKi at or over 7; F = pKi under 7.

q: Hello, I need to know if CC(C)(c1ccc(OCC(=O)NCc2ccc(NC(=N)N)cc2)cc1)c1ccc(OCC(=O)NCc2ccc(NC(=N)N)cc2)cc1 has measured pKi not below 7. Thanks!
a: F

q: Hello, I need to know if CC(C)(c1ccc(OC(=O)N2CCN(C(=O)NCc3ccc(CN)cc3)CC2)cc1)c1ccc(OC(=O)N2CCN(C(=O)NCc3ccc(CN)cc3)CC2)cc1 [Compound 36, Dihydrochloride] has measured pKi not below 7. Thanks!
a: T

q: Hello, I need to know if NCC1CCC(C(=O)N2CCN(C(=O)Nc3ccc(Oc4ccc(NC(=O)N5CCN(C(=O)C6CCC(CN)CC6)CC5)cc4)cc3)CC2)CC1 (centres unmarked) [Compound 17, Dihydrochloride] has measured pKi not below 7. Thanks!
a: F

q: Hello, I need to know if CC(C)(c1ccc(OCC(=O)NCC(=O)NCCCCN)cc1)c1ccc(OCC(=O)NCC(=O)NCCCCN)cc1 [Compound 34, Dihydrochloride] has measured pKi not below 7. Thanks!
a: F

q: Hello, I need to know if NCc1cccc(C(=O)NC2CCN(C(=O)c3cccc(C(=O)N4CCC(NC(=O)c5cccc(CN)c5)CC4)n3)CC2)c1 has measured pKi not below 7. Thanks!
a: T

q: Hello, I need to know if NCC1CCC(C(=O)NC2CCN(C(=O)NC3CCC(CC4CCC(NC(=O)N5CCC(NC(=O)C6CCC(CN)CC6)CC5)CC4)CC3)CC2)CC1 (centres unmarked) [Compound 23, Dihydrochloride] has measured pKi not below 7. Thanks!
a: F

q: Hello, I need to know if NCC1CCC(C(=O)NC2CCN(C(=O)c3cccc(C(=O)N4CCC(NC(=O)C5CCC(CN)CC5)CC4)n3)CC2)CC1 (centres unmarked) has measured pKi not below 7. Thanks!
a: F
